System: M14 melanoma
Experiment: NCI tumour cell line growth inhibition, 48 h; in the data active means GI50 below about 0.43 µM; inactive means the rest
Your reply should match one of these outcome classes. 1 (yes) (active), 0 (no) (inactive)

Example entries and their recorded answers appear below.
• CCC[CH2][Sn]([CH2]CCC)([O]C(=O)Cc1ccc(F)cc1)[O]C(=O)Cc1ccc(F)cc1 = 0 (no)
• COc1cc2c3c(n(CCCN=[N+]=[N-])c(=O)c2cc1OC)-c1ccc(C#N)cc1C3=O = 0 (no)
• Cn1cc(C2=C(Sc3ccccc3)C(=O)NC2=O)c2ccccc21 = 0 (no)
• CCOC(=O)c1cc(NC(=O)c2cc(NC(=O)c3cc(NC(=O)c4c(-c5ccccc5)noc4C)cn3C)cn2C)cn1C = 0 (no)
• O=C(Cc1csc2nc(-c3ccc(Br)cc3)cn12)N/N=C/c1cc(Br)ccc1O = 0 (no)

Check the results log: what was the call for `CC1(C)CCC(S(=O)(=O)c2ccc3c(c2)/C(=N\O)c2cc(S(=O)(=O)N4CCN(c5ccc(F)cc5O)CC4)ccc2-3)CC1` ?
1 (yes)

###

Test system: RXF 393 renal
Assay: NCI tumour cell line growth inhibition, 48 h; in the data active means GI50 below about 0.43 µM; inactive means the rest
Your reply should match one of these outcome classes. y = active, n = inactive

• Cc1cc(OCc2n[nH]c(=S)n2/N=C/c2ccc(F)cc2)ccc1Cl = n

Check the results log: what was the call for `Cc1cc(C)c(CNC(=O)c2cc(-c3ccc(CN4CCOCC4)cc3)cc3c2cnn3C2CCCC2)c(=O)[nH]1` ?
n

Quick one: `CC[C@]12C=CCN3CC[C@]4(C(=C(C(=O)OC)C1)Nc1cc(OC)c(OC(C)=O)cc14)[C@@H]32`
y

Quick one: `Cc1cccc(NC(=O)c2sc3nc4c(cc3c2N)CCCC4)c1`
n

Quick one: O=C(OC(CNc1c(C(=O)c2ccccc2)c(=O)n(Cc2ccccc2)c(=O)n1Cc1ccccc1)CN1CCOCC1)c1ccccc1 (stereo not given)
n

Quick one: COc1cc(CC(C)C(C)Cc2ccc(O)c(OC)c2)ccc1O (stereo not given)
n

Quick one: `CCN1CCN(c2cc(C)nc(N(CCCNc3ccnc4cc(Cl)ccc34)Cc3cccs3)n2)CC1`
n

Quick one: `COc1cc(Nc2cc(C)nc(N3CCN(c4ccnc5cc(Cl)ccc45)CC3)n2)cc(OC)c1`
y

Quick one: `CCOC(=O)c1cc(C(=O)c2ccc(Cl)cc2)n2ccc(-c3cc[n+](CC(=O)c4ccc(OC)cc4)cc3)cc12`
n

Quick one: Cn1nc(-c2cccs2)cc1/N=C(\N)C(C)(C#N)Cc1ccccc1 (stereo not given)
n

Quick one: `CC(C)(O)c1coc(S(=O)(=O)/N=C(\O)Nc2c3c(cc4c2CCC4)CCC3)c1`
n

###

System: NCI-H460 lung
Test: NCI tumour cell line growth inhibition, 48 h
Would you mind telling me the reported TGI of each entry?

// solved cases for TGI follow
• Nc1ncnc2oc(-c3cccs3)nc12 = > 100 µM
• CCNC(=S)NNC(=O)c1nsc2ccccc12 = > 100 µM
• COc1ccc2c(c1)CC1Cc3cc(OC)c(OC)cc3CN1CC2 (centres undefined) = > 100 µM
• COc1ccc(/C=C/C(=O)C(C)C)cc1 = > 100 µM

Give TGI for each of the items listed below.
1. CC(C)(C)N=Cc1ccccc1[O-].CC(C)(C)N=Cc1ccccc1[O-].[Co+2]
2. COC1C(CO)OC(n2c3ccccc3c3c4c(c5c6ccccc6[nH]c5c32)C(=O)NC4=O)C(OC(=O)C(N)CCCCN)C1O (centres undefined)
3. CCN(C1=CC(=O)NC2CCCCN12)c1ccccc1 (centres undefined)
4. C=C(C)[C@@H]1CC[C@]2(CNCCO)CC[C@]3(C)[C@H](CC[C@@H]4[C@@]5(C)CCC(N)[C@@](C)(CO)[C@@H]5CC[C@]43C)[C@@H]12 (some centres undefined)
5. Cn1nc(-c2cccs2)cc1/N=C(\N)C(C)(C#N)Cc1ccccc1 (centres undefined)
6. Cc1cc2c(c(C(N)=O)c1C)-c1cccc(Cl)c1C2=O
7. CCOC(=O)c1cc(NC(=O)c2cc(NC(=O)c3cc(NC(=O)c4c(-c5ccccc5)noc4C)cn3C)cn2C)cn1C

1: > 100 µM; 2: 3.78 µM; 3: > 100 µM; 4: 3.36 µM; 5: 80.7 µM; 6: > 100 µM; 7: > 100 µM

Give TGI for each of the items listed below.
1. CN(C)C=C1C(=O)N(C)C(=O)N(C)C1=O
2. COC(=O)/C=C\n1ncc(=O)[nH]c1=O
3. O=c1c2cc(I)ccc2nc(-c2cccs2)n1-c1ccc(S(=O)(=O)Nc2nccs2)cc1
4. CCOC(=O)[C@@H]1C2C(=C[C@H]3[C@H]1C(=O)N1CCCC[C@H]31)CCCN2C(=O)OCc1ccccc1 (some centres undefined)

["> 100 µM", "> 100 µM", "> 100 µM", "82.6 µM"]

Give TGI for each of the items listed below.
1. O=C(Cc1csc2nc(-c3ccc(Br)cc3)cn12)N/N=C/c1cc(Br)ccc1O
2. COc1ccc2c(c1)N(CCO)C1=C(C(=O)OC1)C2c1cc(OC)c(OC)c(OC)c1 (centres undefined)
3. COc1ccccc1N=Nc1c(-c2ccccc2)nn(C(=O)CC(=O)Nc2ccccc2Cl)c1-c1ccccc1
4. Cc1ccc(C(=O)Nc2ccc(S(=O)(=O)O)c3cc(S(=O)(=O)O)cc(S(=O)(=O)O)c23)cc1NC(=O)Nc1cc(C(=O)Nc2ccc(S(=O)(=O)O)c3cc(S(=O)(=O)O)cc(S(=O)(=O)O)c23)ccc1C

1. > 100 µM
2. > 50 µM
3. > 100 µM
4. > 87.5 µM
